Entries and their measured kon follow.
# SYSTEM_NAME: T1, EphA2-Fc (UniProt P29317 25-534, limits assumed)
# T1 construct: Amine-coupled to a CM5 chip; not shown: Fc part
# PROTOCOL_TEXT: SPR (BIAcore 3000), EphA2-Fc immobilized on CM5 chip, soluble IgG, 1:1 Langmuir fit
# Description: The interaction of soluble 12G3, 4C10, 12G3/Mut and 4C10/Mut with immobilized EphA2-Fc was monitored by surface plasmon resonance detection using a BIAcore 3000 instrument (Pharmacia Biosensor, Uppsala, Sweden). EphA2-Fc was coupled to the dextran matrix of a CM5 sensor chip (Pharmacia Biosensor) using an Amine Coupling Kit as described (Johnsson et al. supra) at a surface density of 162 RU. IgGs were diluted in 0.01 M HEPES pH 7.4 containing 0.15 M NaCl, 3 mM EDTA and 0.005% P20. […]
Field: numeric (M⁻¹ s⁻¹). Do not append units.

12G3/M, heavy chain modified 12G3 (S60A/A61D, Kabat) (antibody, human IgG1, V domains shown, The light chain is unaltered; Human IgG1 / kappa; also called 12G3/Mut) VH: QMQLVQSGPEVKKPGTSVKVSCKASGFTFDDYSMNWVRQARGQRLEWIGFIRNKANDYTTEYADSVKGRVTITRDMSTSTAYMELSSLRSEDTAVYYCARYPRHHAMDSWGQGTSVTVSS VL: DIQMTQSPSSLSASVGDRVTITCRASQSISNNLHWYQQKPGKAPKLLIKYAFQSISGVPSRFSGSGSGTDFTFTISSLQPEDFATYYCQQANSWPLTFGGGTKVEIK; 187000
4C10/M, heavy chain modified 4C10 (S60A/A61D, Kabat) (antibody, human IgG1, V domains shown, The light chain is unaltered; Human IgG1 / kappa; also called 4C10/Mut) VH: QMQLVQSGPEVKKPGTSVKVSCKASGFTFDDYSMTWVRQARGQRLEWIGFIRNKANAYTTEYADSVKGRVTITRDMSTSTAYMELSSLRSEDTAVYYCARYPRHHAMDSWGQGTSVTVSS VL: DIQMTQSPSSLSASVGDRVTITCRASQSISNNLHWYQQKPGKAPKLLIKYAFQSISGVPSRFSGSGSGTDFTFTISSLQPEDFATYYCQQSNSWPLTFGGGTKVEIK; 64100
4C10 humanized anti-EphA2 monoclonal antibody (antibody, human IgG1, V domains shown, Expressed in HEK 293 cells as soluble human IgG1 (human gamma 1 heavy chain, human kappa light chain)) VH: QMQLVQSGPEVKKPGTSVKVSCKASGFTFDDYSMTWVRQARGQRLEWIGFIRNKANAYTTEYSASVKGRVTITRDMSTSTAYMELSSLRSEDTAVYYCARYPRHHAMDSWGQGTSVTVSS VL: DIQMTQSPSSLSASVGDRVTITCRASQSISNNLHWYQQKPGKAPKLLIKYAFQSISGVPSRFSGSGSGTDFTFTISSLQPEDFATYYCQQSNSWPLTFGGGTKVEIK; 102000

Here's the next entry for you.
kon for 12G3 humanized anti-EphA2 monoclonal antibody (antibody, human IgG1, V domains shown, Expressed as soluble human IgG1 (human gamma 1, human kappa)) VH: QMQLVQSGPEVKKPGTSVKVSCKASGFTFDDYSMNWVRQARGQRLEWIGFIRNKANDYTTEYSASVKGRVTITRDMSTSTAYMELSSLRSEDTAVYYCARYPRHHAMDSWGQGTSVTVSS VL: DIQMTQSPSSLSASVGDRVTITCRASQSISNNLHWYQQKPGKAPKLLIKYAFQSISGVPSRFSGSGSGTDFTFTISSLQPEDFATYYCQQANSWPLTFGGGTKVEIK ?
246000
